The reported numbers originate from patent US11077090B2.

- System: compound-treated mice
- assay: Neuropharmacological assay (SmartCube): behavioral activity signature and minimal effective dose
- Type: in vivo
- condition-description: Mus musculus, ip, MED = dose having 50% or more total activity, read-out: Potency: minimal effective dose (MED), binned
- Source text: Neurosci. 2011 Sep. 9; 5:103 (doi: 10.3389/fnins.2011.00103) (“Roberds”). […] To facilitate testing of multiple compounds for behavioral effects relevant to psychiatric disease, PsychoGenics, Inc. (Tarrytown, N.Y., “PGI”) developed SmartCube™, an automated system in which behaviors of compound-treated mice are captured by digital video and analyzed with computer algorithms. […] where LOQ is the limit of quantification. […]
Parameter: minimal effective dose. Scope: all listed entries.
experimental-readout: minimal effective dose

> print(dat)
                                   compound      obs.value
1        C[C@@H]1OC[C@@H](N)c2cc(F)ccc21.Cl  3 to 10 mg/kg
2  CC[C@@H]1OCc2ccccc2[C@@H]1N.Cl (single isomer, unassigned)      < 3 mg/kg
3        C[C@H]1OC[C@@H](N)c2cc(Cl)ccc21.Cl  3 to 10 mg/kg
4         C[C@@H]1OCc2ccc(Cl)cc2[C@@H]1N.Cl  3 to 10 mg/kg
5      Cc1ccc(Cl)c2c1[C@H](N)[C@H](C)OC2.Cl  3 to 10 mg/kg

###

- System: compound-treated mice
- assay: Neuropharmacological assay (SmartCube): behavioral activity signature and minimal effective dose
- Type: in vivo
- condition-description: i.p. 15 min before test, most efficacious dose(s)
- Source text: Neurosci. 2011 Sep. 9; 5:103 (doi: 10.3389/fnins.2011.00103) (“Roberds”). […] To facilitate testing of multiple compounds for behavioral effects relevant to psychiatric disease, PsychoGenics, Inc. (Tarrytown, N.Y., “PGI”) developed SmartCube™, an automated system in which behaviors of compound-treated mice are captured by digital video and analyzed with computer algorithms. […] where LOQ is the limit of quantification. […]
experimental-readout: CE: cognitive enhancer (probability of activity signature)

> print(dat)
                                    compound         assayed.system          obs.value
 1   CCCN[C@H]1COCc2ccccc21.Cl [Example 265]  compound-treated mice    + (LOQ ≤ + <5%)
 2  CC[C@H]1OCc2ccc(C)cc2[C@H]1N (single isomer, unassigned) [Example 180]  compound-treated mice  ++ (5% ≤ ++ <25%)
 3  Cc1ccc2c(c1)[C@@H](N)[C@H](C)OC2 [Example 156]  compound-treated mice  ++ (5% ≤ ++ <25%)
 4  Cl.NC1COCc2ccc3c(c21)C1CCC3C1 (single isomer, unassigned) [Example 161]  compound-treated mice  ++ (5% ≤ ++ <25%)
 5  CCCN[C@@H]1COCc2ccccc21.Cl [Example 262]  compound-treated mice    + (LOQ ≤ + <5%)
 6  C[C@H]1OCc2ccccc2[C@H]1N (single isomer, unassigned) [Example 154]  compound-treated mice  ++ (5% ≤ ++ <25%)
 7  CC[C@@H]1OCc2cccc(Cl)c2[C@@H]1N (single isomer, unassigned) [Example 218]  compound-treated mice  ++ (5% ≤ ++ <25%)
 8  Cl.NC1COCc2ccccc21 (stereo not shown) [Example 12]  compound-treated mice  ++ (5% ≤ ++ <25%)
 9  CCN(C)C(=O)Oc1ccc2c(c1)[C@H](N(C)C)[C@@H](C)OC2.Cl [Example 288]  compound-treated mice    + (LOQ ≤ + <5%)
10  Cc1cccc2c1[C@@H](N)[C@@H](C)OC2 (single isomer, unassigned) [Example 170]  compound-treated mice  ++ (5% ≤ ++ <25%)
11  CC[C@@H]1OCc2ccccc2[C@@H]1N.Cl (single isomer, unassigned) [Example 198]  compound-treated mice  ++ (5% ≤ ++ <25%)
12  CC(C)[C@@H]1OCc2ccccc2[C@H]1N.Cl (relative stereo) [Example 257]  compound-treated mice    + (LOQ ≤ + <5%)
13  Cc1ccc2c(c1)[C@@H](C)OC[C@H]2N [Example 221]  compound-treated mice    + (LOQ ≤ + <5%)
14  Cc1cc2c(cc1C)[C@H](N)[C@@H](C)OC2.Cl [Example 238]  compound-treated mice  ++ (5% ≤ ++ <25%)
15  CC[C@@H]1OCc2ccc(F)cc2[C@@H]1N.Cl [Example 201]  compound-treated mice  ++ (5% ≤ ++ <25%)
16  CCN(C)C(=O)Oc1ccc2c(c1)C(N(C)C)COC2.Cl (stereo not shown) [Example 284]  compound-treated mice    + (LOQ ≤ + <5%)
17  Cl.N[C@H]1c2ccccc2CO[C@H]1CF (relative stereo) [Example 275]  compound-treated mice    + (LOQ ≤ + <5%)
18  Cl.NC1COCc2ccc3c(c21)C1CCC3C1 (stereo not shown) [Example 51]  compound-treated mice  ++ (5% ≤ ++ <25%)
19  Cc1cccc2c1[C@@H](N)COC2 (single isomer, unassigned) [Example 134]  compound-treated mice  ++ (5% ≤ ++ <25%)

###

- Test system: compound-treated mice
- assay: Neuropharmacological assay (SmartCube): behavioral activity signature and minimal effective dose
- Type: in vivo
- condition-description: i.p. 15 min before test, most efficacious dose(s)
experimental-readout: CE: cognitive enhancer (probability of activity signature)

> print(dat)
                                   compound          obs.value
1  Cc1ccc2c(c1)[C@@H](N)CCOC2 (single isomer, unassigned)  ++ (5% ≤ ++ <25%)
2          C[C@H]1OCc2cccc(Cl)c2[C@@H]1N.Cl  ++ (5% ≤ ++ <25%)
3  Cc1ccc2c(c1C)C(NC(C)C)COC2.Cl (stereo not drawn)  ++ (5% ≤ ++ <25%)
4         C[C@@H]1OCc2cc(Cl)ccc2[C@@H]1N.Cl    + (LOQ ≤ + <5%)
5  CCN(C)C(=O)Oc1ccc2c(c1)CO[C@H](C)[C@H]2N(C)C.Cl    + (LOQ ≤ + <5%)
6  CC[C@H]1OCc2ccccc2[C@@H]1N(C)C.Cl (single isomer, unassigned)    + (LOQ ≤ + <5%)
7         Cc1ccc2c(c1)CO[C@@H](C)[C@H]2N.Cl  ++ (5% ≤ ++ <25%)
8            CC[C@@H]1OCc2ccc(F)cc2[C@@H]1N  ++ (5% ≤ ++ <25%)
9  Cc1cc(C)c2c(c1)[C@H](N)COC2 (single isomer, unassigned)  ++ (5% ≤ ++ <25%)

###

- System: compound-treated mice
- assay: Neuropharmacological assay (SmartCube): behavioral activity signature and minimal effective dose
- Format: in vivo
- condition-description: Mus musculus, ip, MED = dose having 50% or more total activity, read-out: Potency: minimal effective dose (MED), binned
Parameter: minimal effective dose. Scope: all listed entries.
experimental-readout: minimal effective dose

> print(dat)
                                    compound    experimental.readout       obs.value
 1  COc1ccc2c(c1)[C@H](N)[C@H](C)OC2 (single isomer, unassigned) [Example 173]  minimal effective dose   3 to 10 mg/kg
 2  Cc1ccc2c(c1)CO[C@@H](C)[C@H]2N [Example 189]  minimal effective dose  10 to 30 mg/kg
 3  C#CCN[C@@H]1c2ccccc2CO[C@H]1C.Cl [Example 267]  minimal effective dose       < 3 mg/kg
 4  C[C@@H]1OCc2cc(F)ccc2[C@@H]1N.Cl (single isomer, unassigned) [Example 212]  minimal effective dose  10 to 30 mg/kg
 5  C[C@@H]1OCc2ccc(C(F)(F)F)cc2[C@@H]1N.Cl [Example 228]  minimal effective dose  10 to 30 mg/kg
 6  C[C@H]1OCc2ccc(C(F)(F)F)cc2[C@@H]1N.Cl [Example 229]  minimal effective dose   3 to 10 mg/kg
 7  CCN(C)C(=O)Oc1ccc2c(c1)C(N(C)C)COC2.Cl (stereo not shown) [Example 284]  minimal effective dose  10 to 30 mg/kg
 8  Cc1cccc2c1[C@H](N)CO[C@H]2C [Example 227]  minimal effective dose   3 to 10 mg/kg
 9  CC[C@@H]1OCc2ccc(F)cc2[C@@H]1N.Cl [Example 201]  minimal effective dose   3 to 10 mg/kg
10  CC[C@@H]1OCc2ccc(F)cc2[C@H]1N [Example 182]  minimal effective dose       < 3 mg/kg

###

- Tested on: compound-treated mice
- assay: Neuropharmacological assay (SmartCube): behavioral activity signature and minimal effective dose
- Type: in vivo
- condition-description: MED = dose having 50% or more total activity
experimental-readout: Potency: minimal effective dose (MED)

> print(dat)
                                    molecule                   experimental.readout           obs.value
 1  N[C@H]1COCc2ccc3ccccc3c21 (single isomer, unassigned)  Potency: minimal effective dose (MED)    B (>3 to 10 mpk)
 2  C[C@@H]1OCc2ccccc2[C@H]1N (single isomer, unassigned)  Potency: minimal effective dose (MED)          A (≤3 mpk)
 3                 CN[C@@H]1COCc2cccc(Cl)c21  Potency: minimal effective dose (MED)  C (>10 to ≤30 mpk)
 4  N[C@@H]1COCc2ccc3ccccc3c21 (single isomer, unassigned)  Potency: minimal effective dose (MED)    B (>3 to 10 mpk)
 5  N[C@H]1COCc2ccc(F)cc21 (single isomer, unassigned)  Potency: minimal effective dose (MED)  C (>10 to ≤30 mpk)
 6                 Cc1ccc2c(c1)[C@@H](N)COC2  Potency: minimal effective dose (MED)    B (>3 to 10 mpk)
 7  Cl.NC1COCCc2ccc3ccccc3c21 (stereo not shown) [Example 32]  Potency: minimal effective dose (MED)  C (>10 to ≤30 mpk)
 8  Cc1ccc2c(c1)C(N)COCC2.Cl (stereo not shown)  Potency: minimal effective dose (MED)    B (>3 to 10 mpk)
 9                  Cc1ccc2c(c1)[C@H](N)COC2  Potency: minimal effective dose (MED)          A (≤3 mpk)
10  Cl.NC1COCCc2ccc3ccccc3c21 (stereo not shown) [Example 35]  Potency: minimal effective dose (MED)    B (>3 to 10 mpk)
